The reported measurements were obtained from the supplement of paper PMC9170038.

Test system: MS2 coat protein
Assay: apparent KD of MS2 coat protein, switch ON state; designed switch direction (-1 OFF switch, 1 ON switch): 1; higher = weaker reporter binding
Conditions: FMN input: 0 or 200 uM; Eterna round: R93 (includes R88 designs)
Please note: rule met applies when apparent KD of MS2 coat protein is 20 nM or greater, and rule not met applies otherwise.

Past entries and their recorded results:
| macromolecule_sequence | category |
| --- | --- |
| AGAAAACAUGAGGAUCACCCAUGUAGAAAUAUGGGAGGAUAUACAUAGACGAAAGUCAUAGUAGAAGGCCUAAAGA [Mat - Same State 1 - Meechl mod - D128] | rule not met |
| GAGGACCUAGGAUAGGAUAUGUGAAUAAUUACAUGAGGAUCACCCAUGUCCAUUUAUAUGGGAACAUAGAAGGGUUUUGGUUAUC [SameState2 Malc#39] | rule met |
| AUAAAAGAAGCGAAGGAUAUCCAACUCAAAACAUGAGGAUCACCCAUGUAAAGAAAUAAAAAAUGGGAGAAGGUCGCAAAGAAUA [73%, More Fisker Same State 2, D3, 14] | rule met |
| ACAAACAAAAAAGAGGAUAUCCAAAACAAAACAUGAGGAUCACCCAUGUAAAAGAAAAGAAAAUGGGAGAAGGCUUACAACAAAC [SS2 M 22] | rule not met |
| AAUAUAUUAUCUGAGGAUAUCAUAGGAAAAACAUGAGGAUCACCCAUGUGGGAAACCUGGUCGGGUGAGAAGGUGGAUAAUAUAU [Samwise Clockwise 33 - Jieux - Same State 2] | rule met |

Ask | Is the recorded value of apparent KD of MS2 coat protein equal to or greater than 20 nM for this sequence? AUAUAUAUAAGGUAGGAUAUCCUAAAGUAAACAUGAGGAUCACCCAUGUAAAGAAAGAAACUCAUGGAGAAGGACCAUAUAUAUA
Reply | rule not met

Ask | Also need AAAAAACAUGAGGAUCACCCAUGUGAGAACAAGGGAGGAUAUACGAAGACGAAAGUCGAAGUAGAAGGCCUAAAAA [Garnet 81] , thanks.
Reply | rule met

Ask | Also need AGAAAUAAAUGAGAGGAUAUCCAAAAGAAAACAUGAGGAUCACCCAUGUAAAAGAAAAUAAAAUGGGAGAAGGCUCGAAAUAAAG [80%, More Helter Skelter 2] , thanks.
Reply | rule met

Ask | Also need AAAUAACAUGAGGAUCACCCAUGUCAAAUAAAUCGAGGAUAUGGGCCCGGGUUCCGGAAGCCAGAAGGCGAAAAGA [Diareslera] , thanks.
Reply | rule met

Ask | Also need GAAAUAAAAACACAGGAUAUCCAAAAGAAAACAUGAGGAUCACCCAUGUAAAGAAAAUAAAAAUGGGAGAAGGGUGAAAAUAAAA [Mat - Same State 2 - JL mod - D26] , thanks.
Reply | rule not met

Ask | Also need GGAAGACAUGAGGAUCACCCAUGUGGGAAUAUGGGAGGAUAUACAAAGACGAGAGUCAGAGUAGAAGGCCUAGGCC [salish99-ss1-103(!)] , thanks.
Reply | rule met
